- target.or.system: Human 5-HT6 Receptor (Homo sapiens)
- Construct: expressed in transfected cells; host or cells: HEK293
- Sequence (P50406 whole entry): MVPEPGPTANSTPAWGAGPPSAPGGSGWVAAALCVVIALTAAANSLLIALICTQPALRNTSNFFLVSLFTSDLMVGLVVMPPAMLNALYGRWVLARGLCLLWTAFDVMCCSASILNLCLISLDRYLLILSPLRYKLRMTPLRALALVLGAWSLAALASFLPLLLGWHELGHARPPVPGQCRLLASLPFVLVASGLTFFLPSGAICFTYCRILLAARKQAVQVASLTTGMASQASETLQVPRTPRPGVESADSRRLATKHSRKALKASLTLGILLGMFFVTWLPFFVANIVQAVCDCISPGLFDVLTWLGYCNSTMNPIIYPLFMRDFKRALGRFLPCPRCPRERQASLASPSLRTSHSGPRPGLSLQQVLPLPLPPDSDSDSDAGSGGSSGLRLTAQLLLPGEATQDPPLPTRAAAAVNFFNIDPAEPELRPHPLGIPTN
- test: Binding assay for human 5-HT6 receptor ([3H]LSD radioligand)
assay.endpoint: Ki (nM)
One number for each entry, in nM.

Input: Suppose we examine the molecule Cl.Cl.O=S(=O)(c1ccc(F)cc1F)n1cc(Cl)c2cc(CN3CCNCC3)ccc21 [Compound 32, dihydrochloride] ; what Ki value has been reported?
Output: 5.77

----------
Exercise: state measured melting point for each of the compounds provided.

// worked examples, melting point included
| compound | melting point |
| --- | --- |
| CCN1CCN(Cc2ccc3c(ccn3S(=O)(=O)c3ccc(C)cc3)c2)CC1.Cl.Cl | 263 to 267 °C |
| CCN1CCN(Cc2ccc3c(ccn3S(=O)(=O)c3ccc(C(C)C)cc3)c2)CC1.Cl.Cl [Compound 8] | 258 to 261 °C |
| Cl.Cl.O=S(=O)(c1ccccc1Br)n1ccc2cc(CN3CCNCC3)ccc21 [Compound 31] | 264.2 to 266.9 °C |
| Cl.Cl.O=S(=O)(c1ccc(F)cc1)n1cc(Cl)c2cc(CN3CCNCC3)ccc21 [Compound 30] | 254 to 259.6 °C |

Hello, I would appreciate it if you could give melting point for each entry below.
1. CCN1CCN(Cc2ccc3c(ccn3S(=O)(=O)c3ccc(F)cc3F)c2)CC1.Cl.Cl [Compound 10]
2. CCN1CCN(Cc2ccc3c(ccn3S(=O)(=O)c3ccc(F)cc3)c2)CC1.Cl.Cl [Compound 7]
3. CCN1CCN(Cc2ccc3c(ccn3S(=O)(=O)c3ccc(Br)cc3)c2)CC1.Cl.Cl
4. CN1CCN(Cc2ccc3c(c2)c(Cl)cn3S(=O)(=O)c2ccc(Cl)cc2)CC1 [Compound 24]
5. CN1CCN(Cc2ccc3c(c2)c(Cl)cn3S(=O)(=O)c2ccc(F)cc2)CC1 [Compound 25]

Output:
1: 271 to 274.5 °C; 2: 265 to 270 °C; 3: 264.5 to 267 °C; 4: 139.2 to 140.4 °C; 5: 118.8 to 120.1 °C

Please give melting point for each item listed below.
1. Cl.Cl.O=S(=O)(c1ccccc1)n1ccc2cc(CN3CCNCC3)ccc21 [Compound 33]
2. CCN1CCN(Cc2ccc3c(ccn3S(=O)(=O)c3cccc(Cl)c3Cl)c2)CC1.Cl.Cl [Compound 14]
3. CCN1CCN(Cc2ccc3c(ccn3S(=O)(=O)c3ccccc3)c2)CC1.Cl.Cl
4. CN1CCN(Cc2ccc3c(ccn3S(=O)(=O)c3ccccc3)c2)CC1.Cl.Cl [Compound 1]
5. CC(C)c1ccc(S(=O)(=O)n2ccc3cc(CN4CCNCC4)ccc32)cc1.Cl.Cl [Compound 34]
6. CCN1CCN(Cc2ccc3c(ccn3S(=O)(=O)c3ccccc3Br)c2)CC1.Cl.Cl [Compound 15]
7. CN1CCN(Cc2ccc3c(c2)c(Cl)cn3S(=O)(=O)c2ccc(F)cc2F)CC1.Cl.Cl [Compound 26]

Output:
1. 250.4 to 256.2 °C
2. 273.5 to 277 °C
3. 266 to 270.5 °C
4. 266 to 270.5 °C
5. 250 to 254 °C
6. 255.5 to 259 °C
7. 251.85 to 253 °C

Input: Recorded melting point of CCN1CCN(Cc2ccc3c(ccn3S(=O)(=O)c3ccc(Cl)cc3)c2)CC1.Cl.Cl , please.
Output: 265 to 269 °C

Origin of the recorded values: patent US8470830B2
